Assay target: NadR (Neisseria adhesin A Regulator) (Neisseria meningitidis, UniProt Q7DD70)
Sequence (Q7DD70 entry or part of it): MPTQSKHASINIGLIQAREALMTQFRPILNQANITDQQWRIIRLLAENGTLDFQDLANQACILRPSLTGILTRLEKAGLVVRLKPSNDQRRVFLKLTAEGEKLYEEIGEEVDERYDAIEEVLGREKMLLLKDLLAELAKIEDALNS
Measurement description: SPR steady-state; DSC (ΔTm […] °C)
Format: binding
Parameters: gene NMB1843; NadR residues M1-S146, His-tag removed by thrombin (149 residues)
Recorded metric: pKd
Formally, pKd is defined as -log10 of the concentration c, with c in mol/L.

*Q* Returns the measured pKd for the input compound. Input: O=C(O)Cc1ccc(O)c(Cl)c1 [3Cl,4-HPA]
*A* 2.96
